Overview of reported IC50 across a group of compounds:
- system-name: Human autotaxin enzyme (Homo sapiens)
- Construct: purchased R&D System
- test-details: Evaluation of autotaxin inhibitor, Method B (Test Example 2): TG-mTMP fluorescence
- Type: biochemical
- study-conditions: Assay Method B (Test Example 2), human autotaxin; read-out: Inhibitory Activity (autotaxin enzyme inhibitory activity, IC50 class)

| compound | IC50 |
| --- | --- |
| CCCCCn1c(N2CCCC2CCCC)cc(=O)n2cc(-c3ccc(Cl)cc3)nc12 (stereo not drawn) | 0.01 to 0.1 µM |
| CCCCCn1c(N2CCCC2CCCc2ccccc2)cc(=O)n2cc(-c3ccc(Cl)cc3)nc12 (stereo not drawn) | 0.01 to 0.1 µM |
| CCCCCCCCOc1cc(=O)n2cc(-c3ccc(Cl)cc3)nc2n1CCCCC | 0.1 to 1 µM |
| Cc1cc(=O)n2cc(-c3ccc(Cl)cc3)nc2n1Cc1ccc(F)cc1F | 0.01 to 0.1 µM |
| CCCCCn1c(C)cc(=O)n2c(CO)c(-c3ccc(Cl)cc3)nc12 | 0.1 to 1 µM |
| CCCCCn1c(-c2ccncc2)cc(=O)n2cc(-c3ccc(Cl)cc3)nc12 | < 0.01 µM |
| CCCCCn1c(N2CCN(C)CC2)cc(=O)n2cc(-c3ccc(Cl)cc3)nc12 | < 0.01 µM |
| CCCCCn1c(C)c(CCC(=O)OCC)c(=O)n2cc(-c3cccc(Cl)c3)nc12 | 0.1 to 1 µM |
| CCCCCn1c(C)c(NC(C)=O)c(=O)n2cc(-c3cccc(Cl)c3)nc12 | 0.1 to 1 µM |
| CCCCCn1c(C)c(Cc2ccccc2)c(=O)n2cc(-c3cccc(Cl)c3)nc12 | > 1 µM |
| Cc1cc(=O)n2cc(-c3ccc(Cl)cc3)nc2n1Cc1ccc(Cl)cc1F | 0.01 to 0.1 µM |
| Cc1cc(=O)n2cc(-c3ccc(Cl)cc3)nc2n1Cc1cccnc1 | 0.01 to 0.1 µM |
| CCCCCn1c(C)c(CC(=O)O)c(=O)n2cc(-c3ccc(Cl)cc3)nc12 | 0.01 to 0.1 µM |
| CCCCCn1c(OC23CCC(CC2)CC3)cc(=O)n2cc(-c3ccc(Cl)cc3)nc12 | 0.1 to 1 µM |
| CCCCCn1c(-n2ccccc2=O)cc(=O)n2cc(-c3ccc(Cl)cc3)nc12 | < 0.01 µM |
| CCCCCn1c(C)cc(=O)n2cc(-c3ccccc3)nc12 | 0.1 to 1 µM |
| CCCCCn1c(C)c(C)c(=O)n2cc(-c3ccc(Cl)cc3)nc12 | 0.01 to 0.1 µM |
| CCCCCn1c(C)cc(=O)n2cc(-c3ccc4ccccc4c3)nc12 | > 1 µM |

* * *

# pIC50 per entry
- system-name: Human autotaxin enzyme (Homo sapiens, UniProt Q13822)
- Construct: purchased R&D System
- test-details: Evaluation of autotaxin inhibitor, Method C (Test Example 3): 18:0 Lyso PC, choline assay, Resorufin fluorescence
- Type: biochemical
- study-conditions: Assay Method C (Test Example 3), human autotaxin, 18:0 Lyso PC substrate; read-out: Inhibitory Activity (autotaxin enzyme inhibitory activity, IC50 class)
pIC50: −log10 of the molar value.
quantity: pIC50

| compound | value-reported |
| --- | --- |
| CCCCCn1c(/N=C(\C)OCCCOCOC)cc(=O)n2cc(-c3ccc(Cl)cc3)nc12 [Compound 563] | 6.00 to 7.00 |
| Cn1c(N2C[C@H](O)C[C@H]2C(=O)NCC(=O)O)cc(=O)n2cc(-c3ccc(Cl)cc3)nc12 [Compound 773] | < 6.00 |
| CCCCCn1c(N2C[C@@H](F)C[C@H]2C(=O)NCCC(=O)O)cc(=O)n2cc(-c3ccc(Cl)cc3)nc12 [Compound 580] | > 8.00 |
| CCCCCn1c(N(Cc2ccc(C(=O)O)cc2)C(C)=O)cc(=O)n2cc(-c3ccc(Cl)cc3)nc12 [Compound 569] | > 8.00 |
| CCCCCn1c(-c2ccc(C(=O)O)cc2)cc(=O)n2cc(-c3ccc(Cl)cc3)nc12 [Compound 362] | 7.00 to 8.00 |
| CCCCCn1c(C)cc(=O)n2cc(-c3ccc(C(=O)O)cc3)nc12 [Compound 166] | < 6.00 |
| CCCCCn1c(-c2ccc(C(=O)NC(C)(C)C)cc2)cc(=O)n2cc(-c3ccc(Cl)cc3)nc12 [Compound 468] | 6.00 to 7.00 |
| O=C(O)CNC(=O)[C@@H]1C[C@@H](O)CN1c1cc(=O)n2cc(-c3ccc(Cl)cc3)nc2n1Cc1ccccc1 [Compound 750] | 7.00 to 8.00 |
| CCCCCn1c(N2CCC[C@H]2C(=O)N2CCC[C@H](C(=O)O)C2)cc(=O)n2cc(-c3ccc(Cl)cc3)nc12 [Compound 677] | > 8.00 |
| CCCCCn1c(-c2ccc(C(=O)NCCc3c[nH]cn3)cc2)cc(=O)n2cc(-c3ccc(Cl)cc3)nc12 [Compound 523] | 7.00 to 8.00 |
| CCCCCn1c(-c2cccc(F)c2)cc(=O)n2cc(-c3ccc(Cl)cc3)nc12 [Compound 444] | 6.00 to 7.00 |
| CCCCCn1c(N2CCC[C@H]2C(=O)N[C@@H](C)C(=O)OC)cc(=O)n2cc(-c3ccc(Cl)cc3)nc12 [Compound 690] | 7.00 to 8.00 |
| CCCCCn1c(N2CCN(C(=O)N3CCCCC3)CC2)cc(=O)n2cc(-c3ccc(Cl)cc3)nc12 [Compound 291] | 6.00 to 7.00 |
| CCCCCn1c(-c2ccc(C(=O)NCCOCCO)cc2)cc(=O)n2cc(-c3ccc(Cl)cc3)nc12 [Compound 480] | 7.00 to 8.00 |
| CCCCCn1c(N2CCC[C@H]2CC(=O)NCC(=O)O)cc(=O)n2cc(-c3ccc(Cl)cc3)nc12 [Compound 628] | > 8.00 |

* * *

- system-name: Human autotaxin enzyme (Homo sapiens)
- Construct: purchased R&D System
- test-details: Evaluation of autotaxin inhibitor, Method C (Test Example 3): 18:0 Lyso PC, choline assay, Resorufin fluorescence
- Format: biochemical
- study-conditions: Assay Method C (Test Example 3), human autotaxin, 18:0 Lyso PC substrate; read-out: Inhibitory Activity (autotaxin enzyme inhibitory activity, IC50 class)
Items are presented alongside their recorded IC50.
quantity: IC50

| compound | quantity | value-reported |
| --- | --- | --- |
| CCCCCn1c(OC2CN(CCC(=O)O)C2)cc(=O)n2cc(-c3ccc(Cl)cc3)nc12 | IC50 | < 10 nM |
| CCCCCn1c(N2CCNC(C(=O)O)C2)cc(=O)n2cc(-c3ccc(Cl)cc3)nc12 (stereo not shown) | IC50 | 10 to 100 nM |
| CCCCCn1c(NC2(C(=O)NCCC(=O)O)CC2)cc(=O)n2cc(-c3ccc(Cl)cc3)nc12 | IC50 | 100 to 1000 nM |
| CCCCCn1c(N(CCC)C(C)=O)cc(=O)n2cc(-c3ccc(Cl)cc3)nc12 | IC50 | 10 to 100 nM |
| CCCCCn1c(N2CCCC[C@@H]2C(=O)O)cc(=O)n2cc(-c3ccc(Cl)cc3)nc12 | IC50 | 100 to 1000 nM |
| CCCCCn1c(N2C[C@H](F)C[C@H]2C(=O)NC(C)(C)CC(=O)O)cc(=O)n2cc(-c3ccc(Cl)cc3)nc12 | IC50 | < 10 nM |
| CCCCCn1c(-c2ccc(C(=O)NCCNC3CCS(=O)(=O)C3)cc2)cc(=O)n2cc(-c3ccc(Cl)cc3)nc12 (stereo not shown) | IC50 | 10 to 100 nM |

* * *

- system-name: Human autotaxin enzyme (Homo sapiens, UniProt Q13822)
- Construct: purchased R&D System
- test-details: Evaluation of autotaxin inhibitor, Method C (Test Example 3): 18:0 Lyso PC, choline assay, Resorufin fluorescence
- Type: biochemical
- study-conditions: Assay Method C, human autotaxin, 18:0 Lyso PC substrate; read-out: Inhibitory Activity

| molecule | IC50 |
| --- | --- |
| CS(=O)(=O)CCOCCNC(=O)Cc1cn(CCCC(F)(F)F)c2nc(-c3ccc(Cl)cc3)cn2c1=O | > 1000 nM |
| CN(CC#N)C(=O)Cc1cn(CCCC(F)(F)F)c2nc(-c3ccc(Cl)cc3)cn2c1=O | 100 to 1000 nM |
| Cn1cc(Cc2cccc(C(=O)O)c2)c(=O)n2cc(-c3ccc(Cl)cc3)nc12 | 100 to 1000 nM |
| CCCCCn1c(N2CCC[C@H]2C(=O)Nc2nonc2OC)cc(=O)n2cc(-c3ccc(Cl)cc3)nc12 | 10 to 100 nM |
| O=C(O)c1cccc(Cc2cn(CC3CC3)c3nc(-c4ccc(Cl)cc4)cn3c2=O)c1 | 10 to 100 nM |
| CCC(CO)(CO)NC(=O)Cc1cn(CCCC(F)(F)F)c2nc(-c3ccc(Cl)cc3)cn2c1=O | 10 to 100 nM |
| C[C@H]1CCCCN1C(=O)Cc1cn(CCCC(F)(F)F)c2nc(-c3ccc(Cl)cc3)cn2c1=O | 10 to 100 nM |
| O=C(Cc1cn(CCCC(F)(F)F)c2nc(-c3ccc(Cl)cc3)cn2c1=O)NC1COC1 | > 1000 nM |
| Cn1c(N2CCC[C@H]2C(=O)NC(C)(C)C(=O)O)cc(=O)n2cc(-c3ccc(Cl)cc3)nc12 | 100 to 1000 nM |
| CCCCCn1c(N2CCC[C@H]2C(=O)Nc2ccccc2-c2nn[nH]n2)cc(=O)n2cc(-c3ccc(Cl)cc3)nc12 | 100 to 1000 nM |
| N#CCCCCn1cc(Cc2cccc(C(=O)O)c2)c(=O)n2cc(-c3ccc(Cl)cc3)nc12 | < 10 nM |
| CCCCCn1c(N2CCC[C@H]2C(=O)NC[C@H](O)C(F)(F)F)cc(=O)n2cc(-c3ccc(Cl)cc3)nc12 | 100 to 1000 nM |
| N#CCN(CC#N)C(=O)Cc1cn(CCCC(F)(F)F)c2nc(-c3ccc(Cl)cc3)cn2c1=O | 100 to 1000 nM |
| O=C(Cc1cn(CCCC(F)(F)F)c2nc(-c3ccc(Cl)cc3)cn2c1=O)N[C@H]1CCN(C2COC2)C1 | > 1000 nM |
| O=C(Cc1cn(CCCC(F)(F)F)c2nc(-c3ccc(Cl)cc3)cn2c1=O)N1CCN(CCO)CC1 | > 1000 nM |
| CC1CCCCN1C(=O)Cc1cn(CCCC(F)(F)F)c2nc(-c3ccc(Cl)cc3)cn2c1=O (stereo not shown) | 10 to 100 nM |
| CCCCCn1c(-c2ccc(C(=O)NCCNCCO)cc2)cc(=O)n2cc(-c3ccc(Cl)cc3)nc12 | < 10 nM |
| CCCCCn1c(N2CCC[C@H]2C(=O)NCC(O)C(F)(F)F)cc(=O)n2cc(-c3ccc(Cl)cc3)nc12 (stereo partly shown) | 100 to 1000 nM |
| CCCCCn1cc(Cc2cccc(C(=O)O)c2)c(=O)n2cc(-c3ccc(Cl)cc3)nc12 | 10 to 100 nM |
| NS(=O)(=O)CCNC(=O)Cc1cn(CCCC(F)(F)F)c2nc(-c3ccc(Cl)cc3)cn2c1=O | > 1000 nM |
| CCCCCn1c(N2CCC[C@H]2C(=O)NCc2c[nH]nn2)cc(=O)n2cc(-c3ccc(Cl)cc3)nc12 | < 10 nM |
| CCOC(=O)c1cccc(Cc2cn(CCCCC#N)c3nc(-c4ccc(Cl)cc4)cn3c2=O)c1 | 100 to 1000 nM |
| O=C(Cc1cn(CCCC(F)(F)F)c2nc(-c3ccc(Cl)cc3)cn2c1=O)N1CCOCC1 | 100 to 1000 nM |
| CCOC(=O)Cc1cn(CCCC(F)(F)F)c2nc(-c3ccc(Cl)cc3)cn2c1=O | > 1000 nM |
| N#CCNC(=O)Cc1cn(CCCC(F)(F)F)c2nc(-c3ccc(Cl)cc3)cn2c1=O | 100 to 1000 nM |
| CCCCCn1c(N2CCC[C@H]2C(=O)Oc2cc(N)ccc2OC)cc(=O)n2cc(-c3ccc(Cl)cc3)nc12 | 100 to 1000 nM |
| N#CCCCNC(=O)Cc1cn(CCCC(F)(F)F)c2nc(-c3ccc(Cl)cc3)cn2c1=O | > 1000 nM |
| O=C(Cc1cn(CCCC(F)(F)F)c2nc(-c3ccc(Cl)cc3)cn2c1=O)NCCO | > 1000 nM |
| CCCCCn1c(N2CCCCC2c2ccccc2)cc(=O)n2cc(-c3ccc(Cl)cc3)nc12 (stereo not shown) | > 1000 nM |
| O=C(Cc1cn(CCCC(F)(F)F)c2nc(-c3ccc(Cl)cc3)cn2c1=O)N[C@H](CO)Cc1ccccc1 | > 1000 nM |
| C[C@@H]1COC[C@H](C)N1C(=O)Cc1cn(CCCC(F)(F)F)c2nc(-c3ccc(Cl)cc3)cn2c1=O | 100 to 1000 nM |
